pEC50 values, listed per item
Test system: MB453 cells
test_summary: alamarBlue MB453 cell assay (antiproliferative/cytotoxicity)
Type: cell-based
assay_context: Homo sapiens; MDA MB 453 breast cancer cell line
From the text: The H460, MB453, U87, MCF7 and BT474 alamarBlue cell assays provide EC50 values indicative of the antiproliferative or cytotoxic effects of the compounds to respectively the H460 (human non small cell line cancer), MB-453 (breast cancer cell line), U87 (glioblastoma cell line), MCF7 (breast cancer cell line) and BT474 (breast cancer cell line). […] 3. […] Measure fluorescence by exciting at 530-560 nm and measuring emission at 590 nm 5. […]
Expect pEC50 as a plain number equal to -log10 of the molar concentration.

Below are worked cases with known answers.
>>> observed_value("CCc1ncnc(-c2ccnc(C(C)(C)C)c2)c1C#Cc1cnc(C)c(NS(C)(=O)=O)c1")
6.84
>>> observed_value("CCc1ncnc(-c2ccnc(C)c2)c1C#Cc1cnc(C)c(NS(=O)(=O)c2ccc(OC)cc2)c1")
6.30
>>> observed_value("CCc1ncnc(-c2cccc(C(F)(F)F)c2OC)c1C#Cc1cnc(C)c(NS(C)(=O)=O)c1")
6.42
>>> observed_value("CCc1ncnc(-c2ccnc(C)c2)c1C#Cc1cnc(C)c(NS(=O)(=O)c2ccc(C#N)cc2)c1")
6.72
>>> observed_value("CCc1ncnc(-c2ccc(OC)c(F)c2)c1C#Cc1cnc(C)c(NS(C)(=O)=O)c1")
6.74

Entry "CCc1ncnc(-c2cccc(CN(C)C)c2)c1C#Cc1cnc(C)c(NS(C)(=O)=O)c1" , system MB453 cells: what pEC50 was measured? 6.40

Also check "CCc1ncnc(-c2ccnc(C)c2)c1C#Cc1cnc(C)c(NS(=O)(=O)c2ccc(C(C)(C)C)cc2)c1" 5.53

Also check "CCc1ncnc(-c2ccc(F)cc2F)c1C#Cc1cnc(C)c(NS(C)(=O)=O)c1" 5.93

Also check "CCOc1ccc(-c2ncnc(CC)c2C#Cc2cnc(C)c(NS(C)(=O)=O)c2)cc1OCC" 6.91

Also check "Cc1ncc(C#Cc2c(C)ncnc2-c2cccc(CN(C)C)c2)cc1NS(C)(=O)=O" 5.94

====

log10(EC50) values, listed per item
System: BT474 cells
test_summary: alamarBlue BT474 cell assay (antiproliferative/cytotoxicity)
Format: cell-based
assay_context: BT-474 human breast cancer cell line, 5-6 days incubation
Friendly reminder: values = log10 of EC50, unit µM.

Below are worked cases with known answers.
>>> observed_value("Cc1cc(C)cc(-c2ncnc(C)c2C#Cc2cnc(C)c(NS(C)(=O)=O)c2)c1")
-0.05
>>> observed_value("CCc1ncnc(-c2cccc(C(F)(F)F)c2OC)c1C#Cc1cnc(C)c(NS(C)(=O)=O)c1")
-0.27
>>> observed_value("CCc1nc(N)nc(-c2ccc(CN3CCOCC3)cc2)c1C#Cc1cnc(C)c(NS(C)(=O)=O)c1")
-0.59

Entry "CCc1ncnc(-c2ccc(C(=O)N(C)C)cc2F)c1C#Cc1cnc(C)c(NS(C)(=O)=O)c1" , system BT474 cells: what log10(EC50) was measured? 0.29

Also check "CCc1ncnc(-c2cc(C)nc(C)c2)c1C#Cc1cnc(C)c(NS(C)(=O)=O)c1" -0.98

Also check "Cc1ncc(C#Cc2c(C)ncnc2-c2cccc(C#N)c2)cc1NS(C)(=O)=O" -0.08

Also check "CCc1ncnc(-c2ccccc2F)c1C#Cc1cnc(C)c(NS(C)(=O)=O)c1" 0.03

Also check "CCc1ncnc(-c2ccc(C)nc2)c1C#Cc1cnc(C)c(NS(C)(=O)=O)c1" -0.75

Also check "CCc1ncnc(-c2ccnc(C)c2)c1C#Cc1cnc(C)c(NS(=O)(=O)c2ccc(C)cc2C)c1" -0.32

Also check "CCc1nc(N)nc(-c2cccc(CN(C)C)c2)c1C#Cc1cnc(C)c(NS(C)(=O)=O)c1" -0.09

====

test_system: PI3Kalpha (Homo sapiens, UniProt P42336)
Construct: His (N)
Sequence (P27986 whole entry): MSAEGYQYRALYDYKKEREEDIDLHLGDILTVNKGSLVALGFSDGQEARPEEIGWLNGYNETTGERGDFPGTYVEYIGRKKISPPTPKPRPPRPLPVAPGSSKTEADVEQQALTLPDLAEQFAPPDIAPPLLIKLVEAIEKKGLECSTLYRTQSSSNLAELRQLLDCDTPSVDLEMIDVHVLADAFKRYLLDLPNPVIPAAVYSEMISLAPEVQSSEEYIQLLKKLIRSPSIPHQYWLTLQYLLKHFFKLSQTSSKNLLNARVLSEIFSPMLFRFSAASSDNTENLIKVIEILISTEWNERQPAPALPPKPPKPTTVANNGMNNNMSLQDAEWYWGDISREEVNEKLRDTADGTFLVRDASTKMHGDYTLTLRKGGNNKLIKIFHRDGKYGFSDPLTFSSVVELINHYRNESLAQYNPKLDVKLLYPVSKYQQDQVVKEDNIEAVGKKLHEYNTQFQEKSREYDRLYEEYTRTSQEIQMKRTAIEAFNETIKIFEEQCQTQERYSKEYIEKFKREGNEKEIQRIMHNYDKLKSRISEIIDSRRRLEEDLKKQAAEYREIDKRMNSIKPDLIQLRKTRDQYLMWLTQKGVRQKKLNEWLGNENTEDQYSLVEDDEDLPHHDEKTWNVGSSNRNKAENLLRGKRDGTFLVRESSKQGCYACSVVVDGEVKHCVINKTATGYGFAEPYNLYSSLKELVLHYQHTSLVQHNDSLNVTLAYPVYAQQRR
Sequence (P42336 whole entry): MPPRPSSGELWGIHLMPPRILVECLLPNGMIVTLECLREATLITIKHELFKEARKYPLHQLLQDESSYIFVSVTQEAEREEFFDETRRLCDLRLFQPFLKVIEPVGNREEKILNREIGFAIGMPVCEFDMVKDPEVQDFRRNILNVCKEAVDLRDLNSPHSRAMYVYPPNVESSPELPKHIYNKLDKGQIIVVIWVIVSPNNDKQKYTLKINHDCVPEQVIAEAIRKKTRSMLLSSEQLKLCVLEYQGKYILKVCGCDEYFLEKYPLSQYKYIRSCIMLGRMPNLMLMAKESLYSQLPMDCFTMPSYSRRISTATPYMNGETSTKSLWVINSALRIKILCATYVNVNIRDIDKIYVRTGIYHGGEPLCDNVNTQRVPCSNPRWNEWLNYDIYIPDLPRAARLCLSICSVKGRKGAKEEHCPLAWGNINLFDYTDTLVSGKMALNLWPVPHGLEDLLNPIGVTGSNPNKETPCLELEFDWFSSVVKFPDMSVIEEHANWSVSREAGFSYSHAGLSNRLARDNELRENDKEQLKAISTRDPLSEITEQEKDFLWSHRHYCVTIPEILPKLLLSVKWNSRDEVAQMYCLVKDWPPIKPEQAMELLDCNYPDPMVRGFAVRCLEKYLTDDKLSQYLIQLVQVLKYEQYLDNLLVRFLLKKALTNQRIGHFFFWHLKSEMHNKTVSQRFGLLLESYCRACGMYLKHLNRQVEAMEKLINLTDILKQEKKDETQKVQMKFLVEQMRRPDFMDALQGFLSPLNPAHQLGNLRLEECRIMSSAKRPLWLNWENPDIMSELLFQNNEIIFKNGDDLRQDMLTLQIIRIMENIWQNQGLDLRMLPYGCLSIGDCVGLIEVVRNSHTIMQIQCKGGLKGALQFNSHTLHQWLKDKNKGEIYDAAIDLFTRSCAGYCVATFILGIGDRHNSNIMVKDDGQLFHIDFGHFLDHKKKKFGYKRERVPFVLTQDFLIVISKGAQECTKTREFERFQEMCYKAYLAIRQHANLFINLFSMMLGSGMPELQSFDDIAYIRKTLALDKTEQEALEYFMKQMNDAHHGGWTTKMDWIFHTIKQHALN
test_summary: Inhibition of PI3Kalpha-induced PIP-2 phosphorylation (filter-binding assay, 33P-ATP)
assay_context: PI3 Kinase alpha (p85alpha/His-p110alpha), 1 μM ATP; read-out: IC50 PI3Kα
value_type: IC50 (nM)
Numbers only here, please. The scale is nM.

>>> observed_value("CCc1ncnc(-c2ccc(OC)c(F)c2)c1C#Cc1cnc(C)c(NS(C)(=O)=O)c1 [Example 8]")
1
>>> observed_value("CCc1ncnc(-c2ccnc(C)c2)c1C#Cc1cnc(C)c(NS(=O)(=O)c2ccc(C(C)(C)C)cc2)c1 [Example 99]")
11
>>> observed_value("CCc1ncnc(-c2ccnc(C)c2)c1C#Cc1cnc(C)c(NS(=O)(=O)c2ccc(C)cc2)c1 [Example 86]")
1

Entry CCc1ncnc(-c2cccc(C(F)(F)F)c2F)c1C#Cc1cnc(C)c(NS(C)(=O)=O)c1 [Example 70] , system PI3Kalpha (Homo sapiens, UniProt P42336): what IC50 was measured? 20

Also check CCc1ncnc(-c2ccnc(C)c2)c1C#Cc1cnc(C)c(NS(=O)(=O)c2ccc(C#N)cc2)c1 [Example 84] 2

====

Tested on: BT474 cells
test_summary: alamarBlue BT474 cell assay (antiproliferative/cytotoxicity)
Assay type: cell-based
assay_context: BT-474 human breast cancer cell line, 5-6 days incubation
log10 EC50 values, listed per item
Friendly reminder: values = log10 of EC50, unit nM.

>>> observed_value("Cc1ncc(C#Cc2c(C)ncnc2-c2cccc(CN(C)C)c2)cc1NS(C)(=O)=O")
3.11
>>> observed_value("COc1ncc(C#Cc2c(C)ncnc2-c2ccnc(C)c2)cc1NS(=O)(=O)c1ccc(F)cc1F")
1.36
>>> observed_value("Cc1cc(-c2ncnc(C)c2C#Cc2cncc(NS(C)(=O)=O)c2)ccn1")
3.22
>>> observed_value("CCc1ncnc(-c2ccc(OC)cc2F)c1C#Cc1cnc(C)c(NS(C)(=O)=O)c1")
3.01

Fill in: log10 EC50 of "CCc1ncnc(-c2cccc(C(F)(F)F)c2F)c1C#Cc1cnc(C)c(NS(C)(=O)=O)c1" is ___ 3.20

Also check "CCc1ncnc(-c2ccnc(C)c2)c1C#Cc1cnc(C)c(NS(=O)(=O)c2ccc(Cl)cc2)c1" 2.48

Also check "COc1ncc(C#Cc2c(C)nc(N)nc2-c2ccnc(C)c2)cc1NS(=O)(=O)c1ccc(F)cc1F" 1.46

Also check "CCc1ncnc(-c2ccnc(C)c2)c1C#Cc1cnc(C)c(NS(=O)(=O)c2ccc(CNC(C)=O)cc2)c1" 2.81

Also check "CCc1ncnc(-c2ccnc(C)c2)c1C#Cc1cnc(C)c(NS(=O)(=O)c2cccnc2)c1" 2.31

Also check "CCc1ncnc(-c2ccc(CN)nc2)c1C#Cc1cnc(C)c(NS(=O)(=O)c2ccc(F)cc2F)c1" 2.10

Also check "CCc1ncnc(-c2ccnc(C)c2)c1C#Cc1cnc(C)c(NS(=O)(=O)c2ccc(F)cc2F)c1" 1.88

====

Test system: MB453 cells
test_summary: alamarBlue MB453 cell assay (antiproliferative/cytotoxicity)
Format: cell-based
assay_context: Homo sapiens; MDA MB 453 breast cancer cell line
EC50 values, listed per item

Below are worked cases with known answers.
>>> observed_value("CCc1ncnc(-c2ccc(CNC(=O)OC(C)(C)C)nc2)c1C#Cc1cnc(C)c(NS(=O)(=O)c2ccccc2C(F)(F)F)c1")
"169 nM"
>>> observed_value("CCc1ncnc(-c2ccccc2F)c1C#Cc1cnc(C)c(NS(C)(=O)=O)c1")
"1620 nM"

As a next step, examine the molecule that follows.
Fill in: EC50 of "CCc1ncnc(-c2ccnc(C)c2)c1C#Cc1cnc(C)c(NS(=O)(=O)c2ccccc2)c1" is ___ 86 nM

====

Test system: BT474 cells
test_summary: alamarBlue BT474 cell assay (antiproliferative/cytotoxicity)
Type: cell-based
assay_context: BT-474 human breast cancer cell line, 5-6 days incubation
value_type: EC50 (nM)
Numbers only here, please. The scale is nM.

Below are worked cases with known answers.
>>> observed_value("CCc1ncnc(-c2cccc(C#N)c2)c1C#Cc1cnc(C)c(NS(=O)(=O)c2ccc(F)cc2F)c1 [Example 29]")
282
>>> observed_value("CCc1ncnc(-c2ccnc(C)c2)c1C#Cc1cnc(C)c(NS(=O)(=O)c2ccccc2)c1 [Example 83]")
103
>>> observed_value("CCc1ncnc(-c2ccc(C(=O)N3CCN(C)CC3)c(F)c2)c1C#Cc1cnc(C)c(NS(C)(=O)=O)c1 [Example 81]")
477
>>> observed_value("CCc1ncnc(-c2ccnc(C)c2)c1C#Cc1cnc(C)c(NS(=O)(=O)c2cc(C)ccc2OC)c1 [Example 102]")
149
>>> observed_value("CCc1ncnc(-c2ccc(CNC(=O)OC(C)(C)C)nc2)c1C#Cc1cnc(C)c(NS(=O)(=O)c2ccccc2C(F)(F)F)c1 [Example 49]")
207
>>> observed_value("CCc1ncnc(-c2ccnc(C)c2)c1C#Cc1cnc(C)c(NS(=O)(=O)c2c(F)cccc2F)c1 [Example 103]")
53
>>> observed_value("CCc1ncnc(-c2ccc(C(=O)N3CCN(C)CC3)c(F)c2)c1C#Cc1cnc(C)c(NS(=O)(=O)c2ccc(F)cc2F)c1 [Example 27]")
51
>>> observed_value("CCc1nc(N)nc(-c2ccc(C)nc2)c1C#Cc1cnc(C)c(NS(C)(=O)=O)c1 [Example 14]")
89

As a next step, examine the compound that follows.
Fill in: EC50 of CCc1ncnc(-c2ccc(CN)cc2)c1C#Cc1cnc(C)c(NS(C)(=O)=O)c1 [Example 78] is ___ 524
